Here the recorded EC50 is given for each entry.
biological target: HEK cells stably transfected with tetracycline inducible hNR1 and hNR2A (Homo sapiens, UniProt Q05586+Q12879); construct: expressed in transfected cells; host or cells: HEK cells, stably transfected, tetracycline/doxycycline inducible; experiment: Assay 1: Cell-Based Assay, cytosolic calcium response to positive allosteric modulators (with 30 μM glycine and 300 nM L-glutamate, EC30); conditions: Table 2; cytosolic calcium response, with 30 μM glycine and 300 nM L-glutamate (EC30); — = no plateau was reached
Sequence (Q12879 23-1464, other chains not shown): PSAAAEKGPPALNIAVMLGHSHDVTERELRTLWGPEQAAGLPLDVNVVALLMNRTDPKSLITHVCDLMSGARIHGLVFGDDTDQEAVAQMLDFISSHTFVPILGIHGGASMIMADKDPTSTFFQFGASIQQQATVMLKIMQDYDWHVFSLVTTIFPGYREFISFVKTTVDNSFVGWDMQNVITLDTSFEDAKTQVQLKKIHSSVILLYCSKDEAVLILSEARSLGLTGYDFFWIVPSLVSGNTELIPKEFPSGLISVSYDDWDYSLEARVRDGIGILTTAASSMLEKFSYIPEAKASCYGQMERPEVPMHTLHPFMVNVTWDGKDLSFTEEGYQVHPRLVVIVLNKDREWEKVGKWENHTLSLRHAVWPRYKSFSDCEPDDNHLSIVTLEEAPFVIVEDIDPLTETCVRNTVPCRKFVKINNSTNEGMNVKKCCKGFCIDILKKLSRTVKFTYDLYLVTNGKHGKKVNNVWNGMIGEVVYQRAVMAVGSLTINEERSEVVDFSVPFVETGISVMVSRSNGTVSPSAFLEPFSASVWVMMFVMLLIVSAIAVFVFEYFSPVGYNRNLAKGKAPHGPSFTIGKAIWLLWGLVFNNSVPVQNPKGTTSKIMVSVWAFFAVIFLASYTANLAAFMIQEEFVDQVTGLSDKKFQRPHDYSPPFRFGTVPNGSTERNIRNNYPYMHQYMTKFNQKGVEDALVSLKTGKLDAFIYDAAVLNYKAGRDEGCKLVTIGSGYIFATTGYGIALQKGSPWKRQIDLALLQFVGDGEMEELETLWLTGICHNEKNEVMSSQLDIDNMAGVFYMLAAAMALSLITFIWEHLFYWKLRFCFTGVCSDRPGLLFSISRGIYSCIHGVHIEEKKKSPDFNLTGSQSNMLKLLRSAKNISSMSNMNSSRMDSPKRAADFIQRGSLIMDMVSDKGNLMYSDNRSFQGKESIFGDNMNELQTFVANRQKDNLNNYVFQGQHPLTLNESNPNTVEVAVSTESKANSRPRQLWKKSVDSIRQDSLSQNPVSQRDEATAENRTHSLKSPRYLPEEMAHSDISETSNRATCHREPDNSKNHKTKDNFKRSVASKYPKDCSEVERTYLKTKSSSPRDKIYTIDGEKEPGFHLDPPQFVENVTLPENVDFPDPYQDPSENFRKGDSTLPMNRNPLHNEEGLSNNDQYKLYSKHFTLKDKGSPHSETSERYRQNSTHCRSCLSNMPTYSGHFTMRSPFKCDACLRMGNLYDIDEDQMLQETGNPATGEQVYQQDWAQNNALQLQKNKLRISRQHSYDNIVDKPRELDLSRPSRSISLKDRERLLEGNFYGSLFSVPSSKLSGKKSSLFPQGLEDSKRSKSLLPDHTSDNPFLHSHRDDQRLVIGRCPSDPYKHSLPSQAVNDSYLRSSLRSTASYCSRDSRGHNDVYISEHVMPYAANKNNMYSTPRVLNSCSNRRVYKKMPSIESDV
Response body: numeric value in µM, unit text excluded.

molecule	reading-unit	EC50
CCN(Cc1cc(=O)n2c(N3CCOCC3)c(C)sc2n1)c1ccc(F)cc1	µM	10
Cc1sc2nc(COc3ccc(F)cc3)cc(=O)n2c1CCCO	µM	15.5
CCN(Cc1cc(=O)n2c(CCC(C)(C)O)c(C)sc2n1)c1ccc(F)cc1	µM	5

Now for the molecule whose EC50 we want.
Look up and state reported EC50 for Cc1sc2nc(Cc3cccc(C#N)c3F)cc(=O)n2c1[C@@H]1C[C@H]1CO (relative stereo)
1.8

----------
Here the recorded pEC50 is given for each entry.
target: HEK cells stably transfected with tetracycline inducible hNR1 and hNR2A (Homo sapiens, UniProt Q05586+Q12879); construct: expressed in transfected cells; host or cells: HEK cells, stably transfected, tetracycline/doxycycline inducible; assay: Assay 1: Cell-Based Assay, cytosolic calcium response to positive allosteric modulators (with 30 μM glycine and 300 nM L-glutamate, EC30); conditions: Table 3; cytosolic calcium response, with 30 μM glycine and 300 nM L-glutamate (EC30); — = no plateau was reached
Scale: negative log10 of molar concentration, which is what pEC50 denotes.

molecule	pEC50
Cc1sc2nc(Cn3nc(C(F)(F)F)cc3Cl)cc(=O)n2c1-c1cncc(C#N)c1 [compound 197]	6.49
CCNC(=O)c1c(OCC)sc2nc(Cn3nc(C(F)(F)F)cc3Cl)cc(=O)n12 [compound 175]	6.06
CNC(=O)c1c(C(F)(F)F)sc2nc(Cn3nc(C)cc3C(F)(F)F)cc(=O)n12 [compound 62]	4.61

Now for the molecule whose pEC50 we want.
Look up and state reported pEC50 for Cc1sc2nc(Cn3nc(Cl)cc3C(F)(F)F)cc(=O)n2c1Br [compound 216]
7.23

----------
Here the recorded Max % is given for each entry.
molecular target: HEK cells stably transfected with tetracycline inducible hNR1 and hNR2A (Homo sapiens, UniProt Q05586+Q12879); construct: expressed in transfected cells; host or cells: HEK cells, stably transfected, tetracycline/doxycycline inducible; test: Assay 1: Cell-Based Assay, cytosolic calcium response to positive allosteric modulators (with 30 μM glycine and 300 nM L-glutamate, EC30); conditions: Table 2; responses scaled relative to 100 μM L-glutamate maximal response (100%) and 0 μM L-glutamate (0%)
Response body: numeric value in %, unit text excluded.

molecule	number
CCN(Cc1cc(=O)n2c3c(sc2n1)CCC31CCCC1)c1ccc(F)cc1	60.5
CNC(=O)c1c(C2CC2)sc2nc(COc3ccc(F)cc3)cc(=O)n12	61.8
CCN(Cc1cc(=O)n2c(Cl)c(C)sc2n1)c1ccc(F)cc1	159

Look up and state reported Max % for "Cc1sc2nc(Cn3ncc4ccccc43)cc(=O)n2c1-c1cncnc1"
48.2

Look up and state reported Max % for "CCN(Cc1cc(=O)n2c(CN3CCC3)c(C)sc2n1)c1ccc(F)cc1"
63.5

Look up and state reported Max % for CCN(Cc1cc(=O)n2c(C(C)O)csc2n1)c1ccc(F)cc1 (stereo not drawn)
178

Look up and state reported Max % for "CCNC(=O)c1c(C)sc2nc(Cc3cccc(C#N)c3Cl)cc(=O)n12"
45.6

Look up and state reported Max % for "CCNC(=O)c1c(C)sc2nc(Cc3cc(F)ccc3Cl)cc(=O)n12"
84.3

Look up and state reported Max % for Cc1sc2nc(Cc3cccc(C#N)c3F)cc(=O)n2c1[C@@H]1C[C@H]1CO (relative stereo)
148
